Where do the numbers come from? From ChEMBL document CHEMBL1275443.

Reported Km values for the following molecules.
test system: Pectobacterium atrosepticum; assay: Activity of Erwinia carotovora subsp. atroseptica DSM 30184 beta-lactamase CAR-1
Give the value in µM but do not write µM after it.

Problem: Item under review: `CCN1CCN(C(=O)N[C@@H](C(=O)N[C@@H]2C(=O)N3[C@@H]2SC(C)(C)[C@@H]3C(=O)O)c2ccccc2)C(=O)C1=O` . Reported Km?
Result: 340

Problem: Next entry: `CC1(C)S[C@@H]2[C@H](NC(=O)[C@H](N)c3ccccc3)C(=O)N2[C@H]1C(=O)O`
Result: 1600

Problem: Moving on to the next molecule: `C[C@@H](O)[C@H]1C(=O)N2C(C(=O)O)=C([C@H]3CCCO3)S[C@H]12`
Result: 120
